What % inh was measured for each of the following?
SYSTEM TESTED: T1, human DLL4 overexpressed on cells (human, UniProt Q9NR61 27-685)
T1 construct: full length human DLL4 on CHO or HEK293 cells; also called CHO-hDLL4; CHO-hDII4
ASSAY TEXT: FMAT, labelled hNotch1-Fc on CHO-hDLL4, periplasmic extract
Hi! Could you send only the number? It should be in %, unit omitted.

Look up % inh: DLLBII107C03 (VHH) VHH: EVQLVESGGGLVQPGGSLRLSCEVSGSIGSVSDMRWYRQAPGLQYELVARITSGSITDYSDSVKGRFTISRDNAKNTVYLQMNSLKPEDTAVYYCNADVQHSAWLKPLTYWGQGTQVTVSS 75

Which % inh value is on record for DLLBII112E07 (VHH) VHH: EVQLVESGGGLVQAGGSLRLSCAASGRTVRSYATGWFRQAPGKEREFVAALRWSIGSIASVYYDDSVKGRFTISGDNAENTVYLQMNALKPEDTAIYYCASTTRGRYSALSASAYDYWGQGTQVTVSS ? 80

Endpoint output: % inh of DLLBII80E08 (VHH) VHH: EVQLVESGGGLVQAGGSLTLSCAASGGTFTTYAMGWFRQAPGKEREFVAAVSRFGVSWDYADSVKGRFTISRDNTANTLKLRMNSLKADDTAVYYCAAGGRSFLPFVPAYWGQGTQVTVSS . Value? 71

Consider the binder shown here: DLLBII58A11 (VHH) VHH: EVQLVESGGGLVQAGGSLRLSCTTSERTVSRYSMGWFRQAPGKEREAVATISWSGDSTYYADSVKGRFTISRDNTKNTLYLQIDSLKPEDTAVYYCVAKPNLKYGSYWPPRGYDYWGQGTQVTVSS What is its recorded % inh? 95

May I ask what % inh has been recorded for DLLBII95F02 (VHH) VHH: EVQLVESGGGSVQAGGSLRLSCAASGRTFSSYAMGWFRQAPGKEREFVAAINWSGGYTYYADSVRGRFTISRDNAKNTVYLQMNSLKPEDTAVYYCAAPAPGSSGYEYDYWGQGTQVTVSS ? 81

State the recorded % inh for this entry: DLLBII104A03 (VHH) VHH: EVQLVESGGGLVQAGGSLRLSCAASGDIPRIAAMGWYRQAPGKQRELVATVSNAATTRYADSAKGRFTISRDNAKTVSLQMDNLKPEDTGVYYCYSLATTVTPSWVNYWGQGTQVTVSS 86

Fill in the blank: the reported % inh of DLLBII112A04 (VHH) VHH: EVQLVESGGGLVQAGGSLRLSCAAFGRTPYGMGWFRQAPGKEREFVAAITSDGSTNYADSVKGRFTISRDNAKNAVSLQMNSLKPEDTAVYYCTAPYYSDFEGTTTEYDYWGQGTQVTVSS is ____. 75

Item under review: DLLBII101G08 (VHH, also called 101G8; DLLBII101G8) VHH: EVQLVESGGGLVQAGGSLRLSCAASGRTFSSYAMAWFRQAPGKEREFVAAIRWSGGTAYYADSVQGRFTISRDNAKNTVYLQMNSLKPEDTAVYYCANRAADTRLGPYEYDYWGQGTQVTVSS . Reported % inh? 91

Find the recorded % inh belonging to DLLBII101F01 (VHH) VHH: EVQLVESGGGLVQAGGSLRLSCAASGRTFSNYAMGWFRQAPGKEREFVAAISWSGGDTYYADSVKGRFTISRDNAKNTVCLQMNSLKPEDTAVYYCAASFQSGAAPGANFYDYWGQGTQVTVSS and report it. 85

Fill blank: measured % inh of the binder DLLBII104B05 (VHH) VHH: EVQLVESGGGSVQAGGSLRLSCAASGSISRIDVMAWYRQAPGKERELVASISSGGSTNYADSVKGRFTISREYFKNMMYLQMNSLKFEDTAVYYCNADSRRGGVGNFFRSWGQGTQVTVSS is ____. 86
